Molecular target: KDM5B (Homo sapiens)
Construct: Full length of KDM5B and KDM4C protein were purchased from Active Motif; purchased Active Motif 31832
Sequence (Q9UGL1 whole entry): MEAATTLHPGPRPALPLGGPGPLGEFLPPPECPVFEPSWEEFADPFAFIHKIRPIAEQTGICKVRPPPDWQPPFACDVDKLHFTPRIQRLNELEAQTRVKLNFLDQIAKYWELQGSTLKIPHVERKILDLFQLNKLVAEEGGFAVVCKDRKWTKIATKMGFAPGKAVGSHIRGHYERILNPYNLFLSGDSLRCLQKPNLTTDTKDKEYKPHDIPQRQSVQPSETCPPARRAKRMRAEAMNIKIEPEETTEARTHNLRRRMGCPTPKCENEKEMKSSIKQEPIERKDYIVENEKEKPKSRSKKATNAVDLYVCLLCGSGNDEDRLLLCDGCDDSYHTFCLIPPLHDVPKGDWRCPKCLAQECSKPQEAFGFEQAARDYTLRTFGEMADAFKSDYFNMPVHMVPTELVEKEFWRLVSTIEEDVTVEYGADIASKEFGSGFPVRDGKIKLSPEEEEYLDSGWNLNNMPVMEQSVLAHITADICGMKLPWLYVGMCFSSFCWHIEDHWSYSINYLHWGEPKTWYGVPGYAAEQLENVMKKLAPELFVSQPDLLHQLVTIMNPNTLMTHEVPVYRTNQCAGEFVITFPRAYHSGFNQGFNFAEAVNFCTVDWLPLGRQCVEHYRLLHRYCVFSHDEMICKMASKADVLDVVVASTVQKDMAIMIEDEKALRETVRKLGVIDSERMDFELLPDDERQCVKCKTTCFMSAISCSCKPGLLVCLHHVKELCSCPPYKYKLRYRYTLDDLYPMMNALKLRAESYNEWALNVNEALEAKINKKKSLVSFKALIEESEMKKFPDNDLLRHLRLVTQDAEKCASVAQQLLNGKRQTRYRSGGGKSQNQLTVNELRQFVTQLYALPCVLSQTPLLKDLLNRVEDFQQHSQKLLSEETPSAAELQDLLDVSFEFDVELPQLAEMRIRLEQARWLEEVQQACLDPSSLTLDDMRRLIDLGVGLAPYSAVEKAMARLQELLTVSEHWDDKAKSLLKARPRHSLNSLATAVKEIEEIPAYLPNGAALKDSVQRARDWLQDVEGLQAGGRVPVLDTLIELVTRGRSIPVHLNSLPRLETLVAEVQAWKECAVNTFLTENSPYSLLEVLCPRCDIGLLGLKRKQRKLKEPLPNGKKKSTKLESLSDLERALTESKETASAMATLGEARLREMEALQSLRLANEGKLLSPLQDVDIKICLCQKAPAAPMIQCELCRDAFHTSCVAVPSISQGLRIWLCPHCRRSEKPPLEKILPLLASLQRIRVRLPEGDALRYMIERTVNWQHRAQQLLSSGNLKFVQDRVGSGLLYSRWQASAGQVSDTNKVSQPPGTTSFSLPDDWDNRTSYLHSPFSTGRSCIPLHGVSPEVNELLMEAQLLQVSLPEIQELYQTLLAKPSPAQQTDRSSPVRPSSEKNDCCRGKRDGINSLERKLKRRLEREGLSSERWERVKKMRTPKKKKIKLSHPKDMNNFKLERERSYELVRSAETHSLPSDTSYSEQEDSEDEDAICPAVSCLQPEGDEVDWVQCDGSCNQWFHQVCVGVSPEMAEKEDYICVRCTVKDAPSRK
Assay: biochemical
Listed here: items and their measured IC50.

SMILES_DATA | IC50
Cc1nccn1-c1nc(O)c(C(C)C)c(-c2cnn(C(C)C)c2)n1 | 125 nM
CC(C)c1c(O)nc(-n2ccnc2)nc1OCC(=O)NS(C)(=O)=O | 148 nM
CC(C)c1c(O)nc(-n2ccnc2)nc1-c1cccc(C(=O)N2CCOCC2)c1 | 73 nM
CC(C)c1c(O)nc(-c2cncs2)nc1OCc1cccnc1 | 91 nM

----------
Target: KDM4C (Homo sapiens)
Construct: Full length of KDM5B and KDM4C protein were purchased from Active Motif; purchased Active Motif 31858
Sequence (Q9H3R0 1-1056): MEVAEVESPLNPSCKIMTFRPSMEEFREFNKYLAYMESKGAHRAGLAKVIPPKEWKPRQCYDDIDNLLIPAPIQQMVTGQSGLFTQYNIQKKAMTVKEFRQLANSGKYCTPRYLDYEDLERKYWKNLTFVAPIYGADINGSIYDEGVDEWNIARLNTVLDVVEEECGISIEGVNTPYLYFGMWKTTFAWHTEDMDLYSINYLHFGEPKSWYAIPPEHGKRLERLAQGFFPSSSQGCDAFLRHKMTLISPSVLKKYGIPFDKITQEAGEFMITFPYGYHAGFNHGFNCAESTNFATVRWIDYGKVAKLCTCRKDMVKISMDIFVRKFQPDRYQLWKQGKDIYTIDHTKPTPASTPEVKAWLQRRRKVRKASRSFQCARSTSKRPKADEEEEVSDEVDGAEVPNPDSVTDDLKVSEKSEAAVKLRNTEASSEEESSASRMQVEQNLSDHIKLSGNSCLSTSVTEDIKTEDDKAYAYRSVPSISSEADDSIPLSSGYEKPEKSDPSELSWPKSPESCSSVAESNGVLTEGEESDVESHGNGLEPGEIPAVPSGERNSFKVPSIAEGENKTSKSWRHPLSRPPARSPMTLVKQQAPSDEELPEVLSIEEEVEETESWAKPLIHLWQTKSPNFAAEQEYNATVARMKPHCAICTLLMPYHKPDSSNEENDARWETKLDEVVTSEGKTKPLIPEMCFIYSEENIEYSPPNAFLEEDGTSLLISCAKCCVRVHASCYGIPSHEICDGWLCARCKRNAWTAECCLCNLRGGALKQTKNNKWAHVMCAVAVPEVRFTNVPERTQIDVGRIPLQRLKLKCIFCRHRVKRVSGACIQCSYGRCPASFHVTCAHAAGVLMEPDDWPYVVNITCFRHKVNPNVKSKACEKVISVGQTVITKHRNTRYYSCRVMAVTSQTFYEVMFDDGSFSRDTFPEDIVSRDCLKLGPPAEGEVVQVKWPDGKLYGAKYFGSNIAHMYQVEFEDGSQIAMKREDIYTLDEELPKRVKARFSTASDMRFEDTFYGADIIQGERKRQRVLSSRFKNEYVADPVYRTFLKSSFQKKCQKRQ
Assay: KDM4C AlphaScreen assay
Assay type: biochemical
Conditions: AlphaScreen; full length KDM4C 0.2 nM; biotinylated H3K9Me3 peptide 3 nM; 30 minutes at room temperature

SMILES_DATA | IC50
CC(C)c1c(O)nc(-n2ccnc2)nc1-c1cnn(C2CCC2)c1 | 716 nM
CC(C)c1c(O)nc(-n2ccnc2-c2ccccn2)nc1Cl | 3890 nM
CC(C)c1c(O)nc(-n2ccnc2)nc1-c1cnn(Cc2ccccc2)c1 | 1540 nM
CCCCCCOc1nc(-n2ccnc2)nc(O)c1C(C)C | 50000 nM
CC(C)c1c(O)nc(-n2ccnc2)nc1-c1ccc(CNS(C)(=O)=O)cc1 | 1260 nM
CC(C)c1c(O)nc(-n2ccnc2)nc1OCCc1ccncc1 | 1120 nM
CC(C)c1c(O)nc(-n2ccnc2)nc1-c1ccc(C(=O)NCC(=O)O)cc1 | 9710 nM
CC(C)c1c(O)nc(-n2ccnc2)nc1-c1cnn(CC(=O)NCCS(C)(=O)=O)c1 | 1220 nM
Cc1nc(-c2nccs2)nc(O)c1C(C)C | 30000 nM
Cc1noc(C)c1-c1nc(-n2ccnc2)nc(O)c1C(C)C | 10700 nM
CC(C)c1c(O)nc(-n2ccnc2)nc1OCC(=O)NS(C)(=O)=O | 9570 nM
CC(C)c1c(O)nc(-n2ccnc2)nc1-c1ccc(S(C)(=O)=O)cc1 | 2060 nM
CC(C)c1c(O)nc(-n2ccnc2-c2ccccn2)nc1-c1cccc(CNS(C)(=O)=O)c1 | 20000 nM
CC(C)c1c(O)nc(-n2ccnc2)nc1-c1cnn(CC(=O)NCCc2ccccn2)c1 | 1080 nM
CC(C)c1c(O)nc(-n2ccnc2)nc1-c1cccc(S(C)(=O)=O)c1 | 4470 nM
CNC(=O)c1cccc(-c2nc(-n3ccnc3)nc(O)c2C(C)C)c1 | 2030 nM
CC(C)c1c(O)nc(-n2ccnc2)nc1-c1cccc(CO)c1 | 2460 nM
CNC(=O)c1ccc(-c2nc(-n3ccnc3)nc(O)c2C(C)C)cn1 | 2190 nM
Cc1ccc(-c2nc(-n3ccnc3)nc(O)c2C(C)C)cc1N | 896 nM
Cc1n[nH]cc1-c1nc(-n2ccnc2)nc(O)c1C(C)C | 1660 nM
